Target: Human Polymorphonuclear Leukocyte Elastase (Homo sapiens, UniProt P08246)
Construct: Crude extract of human polymorphonuclear leukocytes (PMN) containing elastase activity; endogenous in cells; host or cells: human polymorphonuclear leukocytes (crude extract)
Sequence (P08246 30-247 limits assumed): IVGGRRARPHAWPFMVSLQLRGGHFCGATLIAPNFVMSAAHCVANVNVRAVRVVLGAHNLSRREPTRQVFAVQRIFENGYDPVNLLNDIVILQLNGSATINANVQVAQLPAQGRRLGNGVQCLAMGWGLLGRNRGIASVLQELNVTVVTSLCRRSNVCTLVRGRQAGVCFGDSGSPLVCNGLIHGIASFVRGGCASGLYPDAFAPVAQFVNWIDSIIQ
Assay: Inhibition of human polymorphonuclear leukocyte (granulocyte) elastase via hydrolysis of Boc-AAPAN
Type: biochemical
Settings: crude human PMN extract, 0.2 mM Boc-AAPAN, pH 7.5, 410 mμ, 2 minutes after zero time; read-out: IC50 (dosage for 50% inhibition of the enzyme activity) (converted)
READOUT_LABEL: log10 of IC50 (log10 of the value in µM)
Plainly stated, the numbers are log10 of IC50 given in µM.

As a guide, the following entries are already answered.
COMPOUND	TESTED_SYSTEM	READOUT_LABEL	REPORTED_MEASUREMENT
COc1ccc(CNC(=O)[C@@H]2N3C(=O)[C@@H](NC(=O)C(F)(F)F)[C@H]3S(=O)(=O)C2(C)C)cc1 [6β-CF3 (CO)NH / 2 / NHBZ(p-OCH3)]	Human Polymorphonuclear Leukocyte Elastase (Homo sapiens, UniProt P08246)	log10 of IC50	-0.19
CN(C(=O)C(F)(F)F)[C@H]1C(=O)N2[C@@H]1SC(C)(C)[C@@H]2C(=O)OCc1ccccc1 [6α-CF3 CON(CH3) / 0 / OBZ]	Human Polymorphonuclear Leukocyte Elastase (Homo sapiens, UniProt P08246)	log10 of IC50	0.86
CC1(C)[C@H](C(=O)c2ccccc2)N2C(=O)[C@@H](NC(=O)C(F)(F)F)[C@H]2S1(=O)=O [6β-CF3 CONH / 2 / Ph]	Human Polymorphonuclear Leukocyte Elastase (Homo sapiens, UniProt P08246)	log10 of IC50	0.39
CO[C@H]1C(=O)N2[C@@H]1[S+]([O-])C(C)(COC(C)=O)[C@@H]2C(=O)OCc1ccccc1 (stereo partly drawn) [α-CH3 O / 1 / OBZ]	Human Polymorphonuclear Leukocyte Elastase (Homo sapiens, UniProt P08246)	log10 of IC50	1.00
CN(C(=O)C(F)(F)F)[C@H]1C(=O)N2[C@@H]1[S+]([O-])C(C)(C)[C@@H]2C(=O)OCc1ccccc1 (stereo partly drawn) [6α-CF3 CON(CH3) / 1 / OBZ]	Human Polymorphonuclear Leukocyte Elastase (Homo sapiens, UniProt P08246)	log10 of IC50	0.84
CC1(C)S[C@@H]2C(OC(=O)COc3ccccc3)C(=O)N2[C@H]1C(=O)OCc1ccccc1 (stereo partly shown) [C6 H5 OCH2 COO / 0 / OBZ]	Human Polymorphonuclear Leukocyte Elastase (Homo sapiens, UniProt P08246)	log10 of IC50	1.66
Cc1ccc(S(=O)(=O)OC2C(=O)N3[C@@H]2[S+]([O-])C(C)(C)[C@@H]3C(=O)OCc2ccccc2)cc1 (stereo partly shown) [p-CH3 C6 H4 SO2 O(TsO) / 1 / OBZ]	Human Polymorphonuclear Leukocyte Elastase (Homo sapiens, UniProt P08246)	log10 of IC50	0.62
CN(CC(=O)OC(C)(C)C)C(=O)[C@@H]1N2C(=O)[C@H](NC(=O)C(F)(F)F)[C@H]2S(=O)(=O)C1(C)C [6α-CF3 (CO)NH / 2 / N(CH3)(CH2 COOtBu)]	Human Polymorphonuclear Leukocyte Elastase (Homo sapiens, UniProt P08246)	log10 of IC50	0.17
CC1(C)S[C@@H]2[C@@H](NC(=O)C(F)(F)F)C(=O)N2[C@H]1C(=O)OCc1ccccc1 [6α-CF3 CONH / 0 / OBZ]	Human Polymorphonuclear Leukocyte Elastase (Homo sapiens, UniProt P08246)	log10 of IC50	1.00
CC1(C)[C@H](C(=O)OCc2ccccc2)N2C(=O)C(OC(=O)COc3ccccc3)[C@H]2[S+]1[O-] (stereo partly shown) [C6 H5 OCH2 COO / 1 / OBZ]	Human Polymorphonuclear Leukocyte Elastase (Homo sapiens, UniProt P08246)	log10 of IC50	1.04

Form: Entry = Cc1ccc(S(=O)(=O)C[C@H]2C(=O)N3[C@@H](C(=O)OCc4ccccc4)C(C)(C)S(=O)(=O)[C@H]23)cc1 [6α-(TS)CH2 / 2 / OBZ (2nd)] | System = Human Polymorphonuclear Leukocyte Elastase (Homo sapiens, UniProt P08246) | log10 of IC50 = ____
0.61

Same for COC(=O)[C@@H]1N2C(=O)[C@H](OC)[C@H]2S(=O)(=O)C1(C)C [6α-OCH3 / 2 / OCH3]
1.86
